experimentalTarget: human recombinant serotonin (5-Hydroxytryptamine) 5-HT2A receptor (Homo sapiens, UniProt P28223)
Construct: expressed in transfected cells; host or cells: CHO-K1
Sequence (P28223 whole entry): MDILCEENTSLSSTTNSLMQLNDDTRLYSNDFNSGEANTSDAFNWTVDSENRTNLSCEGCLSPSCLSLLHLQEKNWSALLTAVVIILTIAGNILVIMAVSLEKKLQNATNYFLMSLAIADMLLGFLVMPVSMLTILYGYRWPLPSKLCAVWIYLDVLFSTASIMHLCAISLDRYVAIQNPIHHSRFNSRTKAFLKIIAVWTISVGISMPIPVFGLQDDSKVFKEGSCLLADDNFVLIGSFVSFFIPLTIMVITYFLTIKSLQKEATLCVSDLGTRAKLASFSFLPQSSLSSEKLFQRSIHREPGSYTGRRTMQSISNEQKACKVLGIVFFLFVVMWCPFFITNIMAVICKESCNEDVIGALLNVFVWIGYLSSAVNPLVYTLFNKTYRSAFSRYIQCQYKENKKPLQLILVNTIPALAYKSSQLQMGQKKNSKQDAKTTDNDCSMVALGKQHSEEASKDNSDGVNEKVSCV
testProtocol: Serotonin 5-HT2A radioligand binding ([3H]Ketanserin)
experimentalSetup: compound at 0.1 μM; read-out: Inhibition of ligand binding, Serotonin 5-HT2A (percent inhibition of specific binding)
Give inhibition at 0.1 µM for every item shown.
The number alone won't do; follow it with the unit.

Lab note: Cc1ccc2c(c1)c1c(n2-c2cccc(N(C)C)c2)CCN(C)C1 [Compound 7] gave inhibition at 0.1 µM of 52%

Sure, the documented inhibition at 0.1 µM for Cc1ccc2c(c1)c1c(n2-c2ccccc2-c2cccc3[nH]ncc23)CCN(C)C1 [Compound No. 105] is 94%

Value of inhibition at 0.1 µM reported for the compound CN1CCc2c(c3cc(Cl)ccc3n2-c2cscc2-c2ccncc2)C1 [Compound 28] is 68%

Data point: CNC(=O)c1ccc(-c2ccccc2-n2c3c(c4cc(C)ccc42)CN(C)CC3)cn1 [Compound No. 71] ; inhibition at 0.1 µM = 1%
